target: RORγt (Homo sapiens, UniProt P51449); construct: […]; assay: Fluorescence resonance energy transfer (FRET) test, inhibitory activity of RORγt; format: biochemical; settings: FRET, B-RORγt LBD / Biotin-SRC1; read-out: IC50
Sequence (P51449 269-508 limits assumed): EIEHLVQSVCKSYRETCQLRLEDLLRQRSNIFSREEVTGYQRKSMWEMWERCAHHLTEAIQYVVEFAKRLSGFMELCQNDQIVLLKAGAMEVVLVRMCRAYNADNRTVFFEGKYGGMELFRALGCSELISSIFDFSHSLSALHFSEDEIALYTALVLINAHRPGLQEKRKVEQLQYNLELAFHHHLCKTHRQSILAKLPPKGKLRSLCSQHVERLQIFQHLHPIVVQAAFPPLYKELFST
Under this convention, 1 denotes IC50 strictly below 20 nM and 0 denotes IC50 at or above 20 nM.

* CCS(=O)(=O)c1ccc([C@H](CC#N)NC(=O)c2ccc(N3C[C@@H](Oc4ccc(C(F)(F)F)cc4)C[C@H]3CCOC(F)(F)F)cc2)cc1 [Example 76] | 1
* CCS(=O)(=O)c1ccc([C@@H](NC(=O)c2ccc(N3C[C@@H](Oc4ccc(C(F)(F)F)cc4)C[C@H]3COC(F)F)cc2)C(=O)O)cc1 [Example 102] | 1
* CCS(=O)(=O)c1ccc([C@H](CC#N)NC(=O)c2ccc(N3C[C@H](c4ccc(C(F)(F)F)cc4)CC[C@H]3COC(F)F)cc2F)cc1 [Example 111-1] | 1

Incoming: Hello, I'm reviewing records and need to know if IC50 of CCS(=O)(=O)c1ccc([C@H](COC(N)=O)NC(=O)c2ccc(N3C[C@@H](Oc4ccc(-n5cccn5)cn4)C[C@H]3COC(F)F)nc2)cc1 [Example 168] is below 20 nM. Could you check?
Outgoing: 1

Incoming: Hello, I'm reviewing records and need to know if IC50 of CCS(=O)(=O)c1ccc([C@H](CC#N)NC(=O)c2ccc(N3C[C@H](NCC4CCC(F)(F)CC4)C[C@H]3COC(F)F)cc2)cc1 [Example 31] is below 20 nM. Could you check?
Outgoing: 0

Incoming: Hello, I'm reviewing records and need to know if IC50 of CCS(=O)(=O)c1ccc([C@H](CC#N)NC(=O)c2ccc(N3C[C@@H](Oc4ccc(N)cc4)C[C@H]3COC(F)F)cc2)cc1 [Example 7] is below 20 nM. Could you check?
Outgoing: 0

====

biological target: RORγt (Homo sapiens, UniProt P51449); construct: […]; assay: Fluorescence resonance energy transfer (FRET) test, inhibitory activity of RORγt; format: biochemical; conditions: FRET, B-RORγt LBD / Biotin-SRC1; read-out: IC50
Under this convention, Fulfilled denotes IC50 strictly below 20 nM and Not fulfilled denotes IC50 at or above 20 nM.

# count of solved cases: 3
• CCS(=O)(=O)c1ccc([C@H](CC(=O)O)NC(=O)c2ccc(N3C[C@@H](Oc4ccc(C(F)(F)F)cc4)C[C@H]3COC(F)F)cc2)cc1 [Example 92] = Not fulfilled
• CCS(=O)(=O)c1ccc([C@H](CC(=O)OC)NC(=O)c2ccc(N3C[C@@H](Oc4ccc(C(F)(F)F)cc4)C[C@H]3COC(F)(F)F)cc2)cc1 [Example 96] = Not fulfilled
• CCS(=O)(=O)c1ccc([C@H](CC#N)NC(=O)c2ccc(N3CC(Oc4ccc(C(F)(F)F)cc4)C[C@H]3COC(F)F)cc2)cc1 (single isomer, unassigned) [Example 74] = Not fulfilled

Incoming: Hello, I'm reviewing records and need to know if IC50 of CCS(=O)(=O)c1ccc([C@H](COC(N)=O)NC(=O)c2ccc(N3C[C@@H](Oc4ccc(-n5nccn5)cn4)C[C@H]3COC(F)F)cc2)cc1 [Example 170] is below 20 nM. Could you check?
Outgoing: Fulfilled

Incoming: Hello, I'm reviewing records and need to know if IC50 of CCS(=O)(=O)c1ccc([C@H](COC(N)=O)NC(=O)c2ccc(N3C[C@@H](Oc4ccc(Cl)cn4)C[C@H]3COC(F)F)nc2)cc1 [Example 183] is below 20 nM. Could you check?
Outgoing: Fulfilled

Incoming: Hello, I'm reviewing records and need to know if IC50 of CCS(=O)(=O)c1ccc([C@H](COC(N)=O)NC(=O)c2cnc(N3C[C@@H](Oc4ccc(Cl)cn4)C[C@H]3COC(F)F)c(F)c2)cc1 [Example 164] is below 20 nM. Could you check?
Outgoing: Fulfilled

Incoming: Hello, I'm reviewing records and need to know if IC50 of CCS(=O)(=O)c1ccc([C@H](COC(N)=O)NC(=O)c2ccc(N3C[C@@H](Oc4ccc(OC(F)(F)F)cn4)C[C@H]3COC(F)F)cc2)cc1 [Example 156] is below 20 nM. Could you check?
Outgoing: Fulfilled

Incoming: Hello, I'm reviewing records and need to know if IC50 of CCOC[C@@H]1C[C@H](Oc2ccc(C(F)(F)F)cc2)CN1c1ccc(C(=O)N[C@H](CC#N)c2ccc(S(=O)(=O)CC)cc2)cc1 [Example 77] is below 20 nM. Could you check?
Outgoing: Fulfilled

====

test: Pharmacokinetic evaluation in ICR mice; assay type: in vivo; details: mouse, plasma, po, p.o. 5 mg/kg vs i.v. 1 mg/kg, read-out: Oral bioavailability (F)
metric_name: bioavailability
Hi, when you answer, please include the unit after the number. Thanks!

// known answers, use as guide
* CCS(=O)(=O)c1ccc([C@H](CC#N)NC(=O)c2ccc(N3CC(Oc4ccc(OC(F)(F)F)cc4)C[C@H]3COC(F)F)cc2)cc1 (stereo in doubt) [Example 64] | 91%
* CCS(=O)(=O)c1ccc([C@H](CC#N)NC(=O)c2ccc(N3C[C@@H](Oc4ccc(C(F)(F)F)cc4)C[C@H]3COC(F)F)cc2)cc1 [Example 47] | 66%
* CCS(=O)(=O)c1ccc([C@H](CC#N)NC(=O)c2ccc(N3C[C@@H](Oc4ccc(OC(F)F)cc4)C[C@H]3COC(F)F)cc2)cc1 [Example 22] | 80%

# molecule CCS(=O)(=O)c1ccc([C@H](CC#N)NC(=O)c2ccc(N3CC(Oc4ccc(C(F)(F)F)cn4)C[C@H]3COC(F)F)cc2)cc1 (stereo in doubt) [Example 65] ; its bioavailability = 82%

====

assay: Stability in human liver microsomes; type: in vitro ADME; conditions: pH 7.4, 0.5 mg protein/mL, 1.5 μM compound, 37° C., NADPH, read-out: Human Half-life t1/2
Listing of recorded half-life at 1.5 μM by entry.
Provide the reading as a plain figure in h.

# molecule CCS(=O)(=O)c1ccc([C@H](CC#N)NC(=O)c2ccc(N3CC(Oc4ccc(C(F)(F)F)cn4)C[C@H]3COC(F)F)cc2)cc1 (stereo in doubt) ; its half-life at 1.5 μM = 1.34

# molecule CCS(=O)(=O)c1ccc([C@H](CC#N)NC(=O)c2ccc(N3C[C@@H](Oc4ccc(OC(F)F)cc4)C[C@H]3COC(F)F)cc2)cc1 ; its half-life at 1.5 μM = 3.98

# molecule CCS(=O)(=O)c1ccc([C@H](CC#N)NC(=O)c2ccc(N3C[C@@H](Oc4ccc(C(F)(F)F)cc4)C[C@H]3COC(F)F)cc2)cc1 ; its half-life at 1.5 μM = 3.5

====

Listing of recorded IC50 by entry.
molecular target: RORγt (Homo sapiens, UniProt P51449); construct: […]; test: Fluorescence resonance energy transfer (FRET) test, inhibitory activity of RORγt; type: biochemical; conditions: FRET, B-RORγt LBD / Biotin-SRC1; read-out: IC50
Provide the reading as a plain figure in nM.

- CCS(=O)(=O)c1ccc([C@H](CC#N)NC(=O)c2ccc(N3C[C@H](c4ccccc4)CC[C@H]3COC(F)F)cc2)cc1: 26
- CCS(=O)(=O)c1ccc([C@H](CC#N)NC(=O)c2ccc(N3C[C@@H](Oc4ccc(-n5ccc(F)n5)cc4)C[C@H]3COC(F)F)cc2)cc1: 9.9
- CCS(=O)(=O)c1ccc([C@H](CC(N)=O)NC(=O)c2ccc(N3C[C@@H](Oc4ccc(C(F)(F)F)cc4)C[C@H]3COC(F)F)cc2)cc1: 21

# compound CCS(=O)(=O)c1ccc([C@H](CC#N)NC(=O)c2ccc(N3CC(Oc4ccc(OC(F)(F)F)cc4)C[C@H]3COC(F)F)cc2)cc1 (stereo in doubt) ; its IC50 = 11

# compound CCS(=O)(=O)c1ccc([C@H](CC(=O)N(C)C)NC(=O)c2ccc(N3C[C@@H](Oc4ccc(C(F)(F)F)cc4)C[C@H]3COC(F)F)cc2)cc1 ; its IC50 = 77

# compound CCS(=O)(=O)c1ccc([C@H](COC(=O)NC)NC(=O)c2ccc(N3C[C@@H](Oc4ccc(OC(F)(F)F)cn4)C[C@H]3COC(F)F)cc2)cc1 ; its IC50 = 11

# compound CCS(=O)(=O)c1ccc([C@H](CC#N)NC(=O)c2ccc(N3C[C@H](O)C[C@H]3COC(F)F)cc2)cc1 ; its IC50 = 120

# compound CCS(=O)(=O)c1ccc([C@H](CC#N)NC(=O)c2cnc(N3CC(Oc4ccc(C(F)(F)F)cc4)C[C@H]3COC(F)(F)F)nc2)cc1 (stereo in doubt) ; its IC50 = 34

# compound CCS(=O)(=O)c1ccc([C@H](CC#N)NC(=O)c2ccc(N3C[C@@H](Oc4ccc(-n5cc(C)cn5)cc4)C[C@H]3COC(F)F)cc2)cc1 ; its IC50 = 10.2

Data origin: patent US20230121086A1
